# EXPERIMENTAL DETAILS: Tmax in Sprague-Dawley rat at 5 mg/kg, po after 24 hrs by LC-MS/MS analysis
# Type: ADME, organism-based
# CONDITIONS USED: in vivo
REPORTED PROPERTY: Tmax (min)
Please state the figure in min; there is no need to write the unit.

Data request, read-out Tmax, for COc1ccc2c3c([nH]c2c1)[C@@H]1N(CC3)C(=O)c2c(OC)cccc2N1C
49.8

====

# TARGET OR TEST SYSTEM: Cone cGMP-specific 3',5'-cyclic phosphodiesterase subunit alpha' (Homo sapiens)
# Sequence (P51160 whole entry, the tested form may be a part): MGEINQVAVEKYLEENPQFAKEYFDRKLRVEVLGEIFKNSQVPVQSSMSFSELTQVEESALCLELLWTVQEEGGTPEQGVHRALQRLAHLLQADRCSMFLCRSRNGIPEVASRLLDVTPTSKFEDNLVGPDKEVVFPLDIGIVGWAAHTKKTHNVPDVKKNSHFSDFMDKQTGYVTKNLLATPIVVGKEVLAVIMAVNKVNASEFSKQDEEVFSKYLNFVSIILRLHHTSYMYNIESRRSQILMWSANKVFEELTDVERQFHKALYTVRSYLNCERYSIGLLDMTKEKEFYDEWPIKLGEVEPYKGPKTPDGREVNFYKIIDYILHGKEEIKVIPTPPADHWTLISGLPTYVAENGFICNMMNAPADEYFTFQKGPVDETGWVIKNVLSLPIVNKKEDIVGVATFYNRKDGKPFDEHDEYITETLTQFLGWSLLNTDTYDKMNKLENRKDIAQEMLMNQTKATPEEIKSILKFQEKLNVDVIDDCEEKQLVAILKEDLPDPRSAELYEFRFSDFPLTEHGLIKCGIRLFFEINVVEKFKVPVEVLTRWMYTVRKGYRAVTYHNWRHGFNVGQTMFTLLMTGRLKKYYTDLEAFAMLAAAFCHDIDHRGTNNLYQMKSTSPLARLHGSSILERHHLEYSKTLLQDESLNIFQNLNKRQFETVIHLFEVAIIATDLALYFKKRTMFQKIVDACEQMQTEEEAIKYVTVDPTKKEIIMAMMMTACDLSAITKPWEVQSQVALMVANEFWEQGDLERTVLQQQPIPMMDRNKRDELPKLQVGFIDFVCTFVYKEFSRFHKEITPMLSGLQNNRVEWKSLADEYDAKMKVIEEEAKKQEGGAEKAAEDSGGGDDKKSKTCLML
# EXPERIMENTAL DETAILS: Inhibition of human PDE6C (2-854 residues) expressed in Sf9 cells incubated for 15 mins using [3H]-cGMP as substrate by liquid scintillation counting method
REPORTED PROPERTY: IC50

Data request, read-out IC50, for COc1ccc2c3c([nH]c2c1)[C@@H]1N(CC3)C(=O)c2c(OC)cccc2N1C
> 150 µM

====

# TARGET OR TEST SYSTEM: Cytochrome P450 3A4 (Homo sapiens)
# Sequence (P08684 whole entry): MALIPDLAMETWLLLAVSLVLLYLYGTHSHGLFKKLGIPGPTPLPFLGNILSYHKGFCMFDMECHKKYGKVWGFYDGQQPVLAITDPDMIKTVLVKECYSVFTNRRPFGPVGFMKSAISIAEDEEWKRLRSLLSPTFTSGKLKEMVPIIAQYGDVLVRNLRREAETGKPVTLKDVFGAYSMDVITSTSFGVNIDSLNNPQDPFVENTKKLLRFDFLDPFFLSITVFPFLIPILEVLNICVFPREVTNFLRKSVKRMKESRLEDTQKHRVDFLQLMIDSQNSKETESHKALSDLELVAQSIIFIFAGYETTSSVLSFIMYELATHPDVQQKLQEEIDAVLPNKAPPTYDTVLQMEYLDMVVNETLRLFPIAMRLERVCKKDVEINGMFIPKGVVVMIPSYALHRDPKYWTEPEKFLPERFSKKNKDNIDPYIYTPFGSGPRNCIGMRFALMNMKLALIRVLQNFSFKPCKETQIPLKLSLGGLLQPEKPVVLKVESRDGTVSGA
REPORTED PROPERTY: IC50
Provide a numeric answer, followed by its unit.

Hi! What's the reported IC50 for COc1ccc2c3c([nH]c2c1)[C@@H]1N(CC3)C(=O)c2c(OC)cccc2N1C on Cytochrome P450 3A4 (Homo sapiens)?
10 µM

====

# TARGET OR TEST SYSTEM: High affinity 3',5'-cyclic-AMP phosphodiesterase 7A (Homo sapiens)
# Sequence (Q13946 whole entry): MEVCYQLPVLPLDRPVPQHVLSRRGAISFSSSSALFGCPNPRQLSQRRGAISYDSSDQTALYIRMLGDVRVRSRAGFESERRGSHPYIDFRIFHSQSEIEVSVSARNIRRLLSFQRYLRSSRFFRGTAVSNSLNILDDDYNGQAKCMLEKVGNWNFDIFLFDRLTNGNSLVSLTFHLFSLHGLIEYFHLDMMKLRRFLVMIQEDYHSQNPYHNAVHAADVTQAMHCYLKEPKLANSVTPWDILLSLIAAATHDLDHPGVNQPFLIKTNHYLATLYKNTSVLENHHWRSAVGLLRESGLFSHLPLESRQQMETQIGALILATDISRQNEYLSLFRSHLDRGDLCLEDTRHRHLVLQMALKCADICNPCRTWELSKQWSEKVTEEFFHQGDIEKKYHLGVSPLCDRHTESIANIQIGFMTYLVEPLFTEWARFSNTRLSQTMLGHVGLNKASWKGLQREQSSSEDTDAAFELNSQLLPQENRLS
REPORTED PROPERTY: IC50

Hi! What's the reported IC50 for COc1cccc2c1C(=O)N1CCc3c([nH]c4cccc(OC)c34)[C@H]1N2C on High affinity 3',5'-cyclic-AMP phosphodiesterase 7A (Homo sapiens)?
> 20 µM

====

# EXPERIMENTAL DETAILS: Cmax in Sprague-Dawley rat at 5 mg/kg, po after 24 hrs by LC-MS/MS analysis
# Format: ADME, organism-based
# Design: route oral, dose 5 mg/kg, time 24 hrs
# CONDITIONS USED: in vivo
REPORTED PROPERTY: Cmax (ng/mL)
Please state the figure in ng/mL; there is no need to write the unit.

Data request, read-out Cmax, for COc1ccc2c3c([nH]c2c1)[C@@H]1N(CC3)C(=O)c2c(OC)cccc2N1C
54.4

====

# EXPERIMENTAL DETAILS: AUC (0 to t) in Sprague-Dawley rat at 5 mg/kg, po after 24 hrs by LC-MS/MS analysis
# Format: ADME, organism-based
# Parameters: route oral, time 24 hrs, dose 5 mg/kg
# CONDITIONS USED: in vivo
REPORTED PROPERTY: AUC(0-t) at 24 h (ng·h/mL)
Please state the figure in ng·h/mL; there is no need to write the unit.

Data request, read-out AUC(0-t) at 24 h, for COc1ccc2c3c([nH]c2c1)[C@@H]1N(CC3)C(=O)c2c(OC)cccc2N1C
146

====

# EXPERIMENTAL DETAILS: Half life in Sprague-Dawley rat at 2.5 mg/kg, iv after 24 hrs by LC-MS/MS analysis
# Format: ADME, organism-based
# CONDITIONS USED: in vivo
REPORTED PROPERTY: half-life (min)
Please state the figure in min; there is no need to write the unit.

Data request, read-out half-life, for COc1ccc2c3c([nH]c2c1)[C@@H]1N(CC3)C(=O)c2c(OC)cccc2N1C
13.2
